# SYSTEM_TESTED: human cloned CHRM4 receptor (Homo sapiens, UniProt P08173)
# Construct: expressed in transfected cells; host or cells: CHO-K1 (M4_CHO)
# Sequence (P08173 1-479): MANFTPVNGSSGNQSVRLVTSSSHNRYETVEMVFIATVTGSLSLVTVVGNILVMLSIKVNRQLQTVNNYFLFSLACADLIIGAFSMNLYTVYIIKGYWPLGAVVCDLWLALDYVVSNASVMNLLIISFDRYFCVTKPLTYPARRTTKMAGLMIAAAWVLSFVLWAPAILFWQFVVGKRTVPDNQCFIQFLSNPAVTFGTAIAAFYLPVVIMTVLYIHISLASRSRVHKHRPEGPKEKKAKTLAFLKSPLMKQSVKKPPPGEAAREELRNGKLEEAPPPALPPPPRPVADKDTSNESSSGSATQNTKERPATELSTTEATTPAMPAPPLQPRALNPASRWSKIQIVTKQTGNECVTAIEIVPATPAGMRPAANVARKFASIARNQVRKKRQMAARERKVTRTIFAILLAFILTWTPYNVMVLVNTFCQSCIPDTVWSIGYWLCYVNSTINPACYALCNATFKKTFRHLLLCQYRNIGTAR
# TEST_DESCRIPTION: CHRM4 Ca++ Flux Assay (M4_CHO cells, agonist mode)
# Assay type: cell-based
# MEASUREMENT_SETUP: Percent Activity (PA)
Label scheme for M4 FDSS PA %: lower than 80% is Condition not met, 80% and above is Condition met.

### Prompt Check the entry Fc1ccc(OC[C@H]2CCO2)c(C2CCN([C@@H]3COC4(C3)CN(c3nncs3)C4)CC2)c1.O=C(O)C(F)(F)F (single isomer, unassigned) [Example 2C] : does M4 FDSS PA % equal or exceed 80%?
### Response Condition not met

### Prompt Check the entry Fc1ccc([C@H]2CCOC2)c(C2CCN([C@@H]3COC4(C3)CN(c3nnco3)C4)CC2)c1 (single isomer, unassigned) [Example 3E] : does M4 FDSS PA % equal or exceed 80%?
### Response Condition met

### Prompt Check the entry C[C@H](Oc1ccc(F)cc1C1CCN([C@@H]2COC3(C2)CN(c2nnco2)C3)CC1)C1CCOCC1 [Example 2X] : does M4 FDSS PA % equal or exceed 80%?
### Response Condition not met

### Prompt Check the entry CC(C)(O)[C@H]1C[C@H](Oc2ccc(F)cc2C2CCN([C@@H]3COC4(C3)CN(c3nnco3)C4)CC2)C1 (single isomer, unassigned) [Example 2W] : does M4 FDSS PA % equal or exceed 80%?
### Response Condition not met

### Prompt Check the entry OC[C@H]1C[C@H](Oc2ccc(F)cc2C2CCN([C@@H]3COC4(C3)CN(c3nnco3)C4)CC2)C1 (single isomer, unassigned) [Example 2HH] : does M4 FDSS PA % equal or exceed 80%?
### Response Condition met

### Prompt Check the entry CC(C)(O)[C@H]1C[C@@H](Oc2ccc(F)cc2C2CCN([C@@H]3COC4(C3)CN(c3ncco3)C4)CC2)C1 (single isomer, unassigned) [Example 4U] : does M4 FDSS PA % equal or exceed 80%?
### Response Condition not met

### Prompt Check the entry c1ccc([C@@H]2CCOC2)c(C2CCN([C@@H]3COC4(C3)CN(c3nnco3)C4)CC2)c1 (single isomer, unassigned) [Example 3A] : does M4 FDSS PA % equal or exceed 80%?
### Response Condition met

### Prompt Check the entry C[C@H](Oc1ccc(F)cc1C1CCN([C@@H]2COC3(C2)CN(c2nnco2)C3)CC1)C1CCOCC1 (single isomer, unassigned) [Example 2Y] : does M4 FDSS PA % equal or exceed 80%?
### Response Condition not met

### Prompt Check the entry c1ccc([C@@H]2CCOC2)c(C2CCN([C@@H]3COC4(C3)CN(c3nnco3)C4)CC2)c1 (single isomer, unassigned) [Example 3B] : does M4 FDSS PA % equal or exceed 80%?
### Response Condition met

### Prompt Check the entry CC1(C)C[C@@H](Oc2ccc(F)cc2C2CCN([C@@H]3COC4(C3)CN(c3nnco3)C4)CC2)CO1 (single isomer, unassigned) [Example 2N] : does M4 FDSS PA % equal or exceed 80%?
### Response Condition not met

### Prompt Check the entry CC1(C)C[C@@H](Oc2ccc(F)cc2C2CCN([C@@H]3COC4(C3)CN(c3nnco3)C4)CC2)CO1 (single isomer, unassigned) [Example 2O] : does M4 FDSS PA % equal or exceed 80%?
### Response Condition met

### Prompt Check the entry Fc1ccc(O[C@H]2CCCOC2)c(C2CCN([C@@H]3COC4(C3)CN(c3nnco3)C4)CC2)c1 (single isomer, unassigned) [Example 2R] : does M4 FDSS PA % equal or exceed 80%?
### Response Condition not met

====

# SYSTEM_TESTED: Cloned human M1 receptor (CHRM1) (Homo sapiens, UniProt P11229)
# Sequence (P11229 whole entry): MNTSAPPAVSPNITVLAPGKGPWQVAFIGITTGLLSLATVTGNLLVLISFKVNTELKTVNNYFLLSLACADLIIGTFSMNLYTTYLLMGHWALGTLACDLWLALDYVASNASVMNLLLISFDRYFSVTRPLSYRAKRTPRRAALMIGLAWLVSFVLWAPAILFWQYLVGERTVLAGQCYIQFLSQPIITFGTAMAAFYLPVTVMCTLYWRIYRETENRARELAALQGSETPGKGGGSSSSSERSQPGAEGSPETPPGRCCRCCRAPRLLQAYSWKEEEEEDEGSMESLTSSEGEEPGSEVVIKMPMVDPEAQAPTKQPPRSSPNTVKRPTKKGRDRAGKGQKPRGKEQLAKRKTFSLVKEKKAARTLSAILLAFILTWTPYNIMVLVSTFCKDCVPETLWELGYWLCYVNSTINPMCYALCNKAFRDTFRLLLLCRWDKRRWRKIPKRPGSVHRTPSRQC
# TEST_DESCRIPTION: CHRM1 Ca++ Flux Assay (HEK293 M1 cells, agonist mode)
# MEASUREMENT_SETUP: geometric mean if tested more than once, read-out: M1 FDSS EC50
pEC50: −log10 of the molar value.
Label scheme for pEC50: lower than 6 is n, 6 and above is y.

### Prompt Check the entry "c1ccc(C2CCN([C@@H]3COC4(C3)CN(c3nnco3)C4)CC2)c(C2CCOCC2)c1" : does pEC50 equal or exceed 6?
### Response n

### Prompt Check the entry "COc1ccccc1C1CCN([C@@H]2COC3(C2)CN(c2ncns2)C3)CC1" : does pEC50 equal or exceed 6?
### Response n

### Prompt Check the entry "Fc1ccc(O[C@H]2CCOC2)c(C2CCN([C@@H]3COC4(C3)CN(c3nnco3)C4)CC2)c1" : does pEC50 equal or exceed 6?
### Response y

### Prompt Check the entry "Fc1ccc(OCC2COC2)c(C2CCN([C@@H]3COC4(C3)CN(c3nnco3)C4)CC2)c1" : does pEC50 equal or exceed 6?
### Response y

### Prompt Check the entry "COc1ccc(F)cc1C1CCN([C@@H]2COC3(C2)CN(c2ncco2)C3)CC1" : does pEC50 equal or exceed 6?
### Response y

### Prompt Check the entry CC(C)(O)[C@H]1C[C@@H](Oc2ccc(F)cc2C2CCN([C@@H]3COC4(C3)CN(c3ncco3)C4)CC2)C1 (single isomer, unassigned) [Example 4U] : does pEC50 equal or exceed 6?
### Response n

### Prompt Check the entry "Fc1ccc(O[C@@H]2CCOC2)c(C2CCN([C@@H]3COC4(C3)CN(c3nnco3)C4)CC2)c1" : does pEC50 equal or exceed 6?
### Response y

### Prompt Check the entry "c1ccc(C2CCN([C@@H]3COC4(C3)CN(c3ncco3)C4)CC2)c(OC2COC2)c1" : does pEC50 equal or exceed 6?
### Response y

### Prompt Check the entry "Cc1nc(COc2ccccc2C2CCN([C@@H]3COC4(C3)CN(c3nncs3)C4)CC2)no1" : does pEC50 equal or exceed 6?
### Response y

### Prompt Check the entry CC(C)(O)[C@H]1C[C@H](Oc2ccc(F)cc2C2CCN([C@@H]3COC4(C3)CN(c3nnco3)C4)CC2)C1 (single isomer, unassigned) [Example 2V] : does pEC50 equal or exceed 6?
### Response n

### Prompt Check the entry "Cc1nnc(-c2ccccc2C2CCN([C@@H]3COC4(C3)CN(c3nnco3)C4)CC2)o1" : does pEC50 equal or exceed 6?
### Response y

====

# SYSTEM_TESTED: human cloned CHRM2 receptor (Homo sapiens, UniProt P08172)
# Sequence (P08172 whole entry): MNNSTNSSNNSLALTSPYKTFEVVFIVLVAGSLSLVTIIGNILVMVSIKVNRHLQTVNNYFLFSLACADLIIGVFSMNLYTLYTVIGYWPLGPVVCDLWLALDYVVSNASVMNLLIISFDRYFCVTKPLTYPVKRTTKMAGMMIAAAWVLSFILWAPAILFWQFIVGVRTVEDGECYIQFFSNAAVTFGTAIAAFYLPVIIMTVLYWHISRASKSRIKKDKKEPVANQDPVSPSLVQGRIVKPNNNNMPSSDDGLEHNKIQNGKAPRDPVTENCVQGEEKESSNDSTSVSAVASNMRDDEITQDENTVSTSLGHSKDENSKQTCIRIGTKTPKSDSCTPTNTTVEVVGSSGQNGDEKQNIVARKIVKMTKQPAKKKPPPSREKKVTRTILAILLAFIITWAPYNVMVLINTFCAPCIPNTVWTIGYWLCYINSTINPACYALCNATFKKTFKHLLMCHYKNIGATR
# TEST_DESCRIPTION: CHRM2 Ca++ Flux Assay (M2_CHO cells, agonist mode)
# MEASUREMENT_SETUP: M2 CHO cells, agonist mode; geometric mean if tested more than once; read-out: M2 FDSS EC50
# Description: The above examples were characterized by measuring the intracellular mobilization of Ca^++ ions caused by signaling events mediated by the receptor. […] Prior to the day of the assay, stable M2 CHO cells were thawed and plated on Greiner 384 well TC treated plate at a density of 12K cells/well and kept overnight in a humidified atmosphere (5% CO2) at 37° C. […] The Percent Activity (PA) was measured to EC100 of Carbachol. […]
pEC50: −log10 of the molar value.
Label scheme for pEC50: lower than 6 is Criterion not met, 6 and above is Criterion met.

### Prompt Check the entry "CC1(COc2ccc(F)cc2C2CCN([C@@H]3COC4(C3)CN(c3nnco3)C4)CC2)COC1" : does pEC50 equal or exceed 6?
### Response Criterion met

### Prompt Check the entry "CC(C)(O)CCOc1ccc(F)cc1C1CCN([C@@H]2COC3(C2)CN(c2nncs2)C3)CC1" : does pEC50 equal or exceed 6?
### Response Criterion not met

### Prompt Check the entry "Fc1ccc(OC[C@H]2COCCO2)c(C2CCN([C@@H]3COC4(C3)CN(c3ncco3)C4)CC2)c1" : does pEC50 equal or exceed 6?
### Response Criterion not met

### Prompt Check the entry c1ccc([C@@H]2CCOC2)c(C2CCN([C@@H]3COC4(C3)CN(c3nnco3)C4)CC2)c1 (single isomer, unassigned) [Example 3A] : does pEC50 equal or exceed 6?
### Response Criterion not met

### Prompt Check the entry "CC1(COc2ccc(F)cc2C2CCN([C@@H]3COC4(C3)CN(c3nncs3)C4)CC2)COC1" : does pEC50 equal or exceed 6?
### Response Criterion met

The reported measurements were obtained from patent US11485742B2.
